Target under test: T1, L1 cell adhesion molecule (L1CAM) on the surface of HeLa cells (human, UniProt P32004 20-1257)
T1 construct: whole, on cells; Endogenous L1CAM of HeLa cells ("HeLa cells that highly express human L1CAM"); also called CD171; human L1CAM
T1 sequence (P32004 20-1257): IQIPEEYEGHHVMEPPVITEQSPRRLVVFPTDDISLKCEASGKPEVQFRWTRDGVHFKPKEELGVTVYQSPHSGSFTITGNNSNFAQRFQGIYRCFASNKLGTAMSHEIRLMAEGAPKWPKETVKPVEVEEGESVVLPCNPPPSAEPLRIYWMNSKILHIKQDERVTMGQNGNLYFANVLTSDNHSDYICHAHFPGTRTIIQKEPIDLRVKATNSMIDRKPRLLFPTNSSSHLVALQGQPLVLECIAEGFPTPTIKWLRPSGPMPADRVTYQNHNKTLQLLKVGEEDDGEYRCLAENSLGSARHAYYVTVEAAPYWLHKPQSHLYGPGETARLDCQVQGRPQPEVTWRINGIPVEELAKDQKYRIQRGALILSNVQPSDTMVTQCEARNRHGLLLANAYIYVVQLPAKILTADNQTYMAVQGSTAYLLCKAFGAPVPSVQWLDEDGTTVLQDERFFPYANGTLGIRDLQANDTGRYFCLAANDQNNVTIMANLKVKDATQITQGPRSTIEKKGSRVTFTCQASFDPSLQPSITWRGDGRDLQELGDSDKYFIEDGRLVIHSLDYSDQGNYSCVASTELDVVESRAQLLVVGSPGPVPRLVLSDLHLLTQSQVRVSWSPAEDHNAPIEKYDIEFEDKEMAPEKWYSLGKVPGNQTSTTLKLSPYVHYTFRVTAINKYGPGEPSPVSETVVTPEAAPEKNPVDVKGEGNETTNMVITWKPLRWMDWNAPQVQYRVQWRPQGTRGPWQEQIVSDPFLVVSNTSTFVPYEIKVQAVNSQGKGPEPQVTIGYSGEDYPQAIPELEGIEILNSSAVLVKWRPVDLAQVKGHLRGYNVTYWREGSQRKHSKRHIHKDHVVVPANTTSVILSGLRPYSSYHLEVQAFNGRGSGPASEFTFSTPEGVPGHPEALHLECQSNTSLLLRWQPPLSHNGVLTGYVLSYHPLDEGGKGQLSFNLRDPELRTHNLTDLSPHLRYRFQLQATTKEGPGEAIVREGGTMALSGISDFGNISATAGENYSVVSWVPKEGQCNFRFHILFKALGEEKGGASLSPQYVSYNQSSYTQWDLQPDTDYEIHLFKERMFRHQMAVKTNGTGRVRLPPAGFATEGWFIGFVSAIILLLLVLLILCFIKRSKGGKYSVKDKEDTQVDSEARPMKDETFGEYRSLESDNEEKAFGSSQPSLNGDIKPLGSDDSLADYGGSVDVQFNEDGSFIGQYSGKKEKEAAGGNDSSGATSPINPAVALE
Experiment: flow cytometry on HeLa cells, MFI dose-response
Property measured: EC50 (nM)
Give bare numbers, in nM.

Binder	EC50, nM
hz103E9B3H6L5 (antibody, human IgG1, kappa, V domains shown, also called humanized anti-L1CAM antibody) VH: EVQLVQSGAEVKKPGASVKVSCKASGYTFTSYTMHWVRQAPGQGLEWMGDINPNYGGTSYNEKFKDRATMTTDTSTSTAYMELRSLRSDDTAVYYCAREGATGTWYFDVWGQGTTVTVSS VL: DIQMTQSPSSLSASVGDRVTITCSASSSVSFMFWYQQKPGKAPKPLIYLTSNLASGVPSRFSGSGSGTDFTLTISSLQPEDFATYYCQQWRSNPPTFGGGTKVEIKR	1.48

Working through the 3 binders below one at a time, give EC50 for each.
1. hz49E10H1H5L6 (antibody, human IgG1, kappa, V domains shown, also called humanized anti-L1CAM antibody) VH: DVQLQESGPGLVKPSQTLSLTCTVSGGSISSDYAWNWIRQPPGKGLEWMGYITYSGTTTYNPSLKSRITISRDTSKNQFSLKLSSVTAADTAVYYCARDHYGNYAYFDYWGQGTTVTVSS VL: DIQMTQSPSSLSASVGDRVTITCRASSSVSFMHWYQQKPGKAPKPWIYASSNLVSGVPSRFSGSGSGTDFTLTISSLQPEDFATYYCQQWSSNPSTFGGGTKVEIKR
2. hz46F1D5H4L3 (antibody, human IgG1, kappa, V domains shown, also called humanized anti-L1CAM antibody) VH: QVQLVQSGAEVKKPGSSVKVSCKASGYTFTRYWIQWVRQAPGQGLEWMGYINPSTGYTDYNQKFQGRVTITADKSTSTAYMELSSLRSEDTAVYYCARRHLGLPLFDYWGQGTTVTVSS VL: DIQMTQSPSSVSASVGDRVTITCRASQDVGTAVAWYQQKPGKAPKLLIYWASSLHSGVPSRFSGSGSGTDFTLTISSLQPEDFATYFCQQYSNYPLTFGGGTKVEIKR
3. hz26A12C1H4L3 (antibody, human IgG1, kappa, V domains shown, also called humanized anti-L1CAM antibody) VH: QVQLVQSGAEVKKPGSSVKVSCKASGYTFTNYWIQWVRQAPGQGLEWIGYINPSTYYSDYNQKFQGRVTLTADKSTSTAYMELSSLRSEDTAVYYCARRQFGLPLFDYWGQGTTVTVSS VL: DIQMTQSPSSLSASVGDRVTITCRASQDVGTAVAWYQQKPGKVPKLLIYWASTLHSGVPSRFSGSGSGTDFTLTISSLQPEDVATYFCQQYSNYPLTFGGGTKVEIKR

1: 0.404; 2: 1.27; 3: 0.738
